Value source: patent US11098059B2

Please go through the items and note down their IC50.
Molecular target: Full-length (FL)-PRMT5-MEP50 enzyme complex (Homo sapiens (Human), UniProt O14744)
Sequence (O14744 whole entry): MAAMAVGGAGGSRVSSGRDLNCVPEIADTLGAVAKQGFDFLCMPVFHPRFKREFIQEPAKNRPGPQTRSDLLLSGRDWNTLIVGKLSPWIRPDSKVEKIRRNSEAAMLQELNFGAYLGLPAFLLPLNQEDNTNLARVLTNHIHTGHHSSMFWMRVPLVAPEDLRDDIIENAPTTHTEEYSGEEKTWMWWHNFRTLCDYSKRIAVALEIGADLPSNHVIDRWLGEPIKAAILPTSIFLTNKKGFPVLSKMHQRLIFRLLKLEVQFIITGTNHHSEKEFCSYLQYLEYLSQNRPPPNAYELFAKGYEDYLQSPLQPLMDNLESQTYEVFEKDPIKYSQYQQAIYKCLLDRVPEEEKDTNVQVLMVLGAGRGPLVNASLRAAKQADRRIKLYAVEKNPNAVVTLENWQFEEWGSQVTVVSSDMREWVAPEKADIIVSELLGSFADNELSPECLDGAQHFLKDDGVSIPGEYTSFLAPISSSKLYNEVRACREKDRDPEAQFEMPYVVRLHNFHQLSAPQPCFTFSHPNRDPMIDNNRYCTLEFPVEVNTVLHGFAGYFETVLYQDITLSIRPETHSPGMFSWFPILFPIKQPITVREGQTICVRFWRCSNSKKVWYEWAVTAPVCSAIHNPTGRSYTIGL
Sequence (Q9BQA1 whole entry partner): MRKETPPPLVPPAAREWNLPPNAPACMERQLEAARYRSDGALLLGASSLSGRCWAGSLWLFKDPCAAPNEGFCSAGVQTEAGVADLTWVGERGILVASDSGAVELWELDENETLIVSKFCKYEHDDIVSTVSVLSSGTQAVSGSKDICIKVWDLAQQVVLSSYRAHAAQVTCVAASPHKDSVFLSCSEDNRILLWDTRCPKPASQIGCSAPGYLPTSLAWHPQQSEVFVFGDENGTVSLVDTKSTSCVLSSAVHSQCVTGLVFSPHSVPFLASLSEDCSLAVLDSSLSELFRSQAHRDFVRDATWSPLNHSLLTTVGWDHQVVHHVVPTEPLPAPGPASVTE
Experiment: PRMT5-MEP50 Enzyme Methylation Assay
Format: biochemical
Settings: read-out: Enzyme Methylation Assay IC50_2
Experimental: PRMT5-MEP50 Enzyme Methylation Assay PRMT5/MEP50 biochemical assay is a direct measurement of the methylation activity of the enzyme complex on a short peptide substrate derived from the N-terminus of H4 histone. The methylation experiment is performed with recombinant protein. The assessment of inhibitory effect (IC50) of small molecules is measured by the effectiveness of the compounds to inhibit this reaction. […]
Please answer using a numeric value trailed by its unit.

QUERY: Which measured IC50 value corresponds to "CC1(C)CN(C[C@@H](O)[C@@H]2Cc3ccccc3CN2)C(=O)c2ccc(C(=O)N3C4CCC3COC4)cc21" ?
RESULT: 138 nM

QUERY: I have this compound here, "O=C1c2ccc(-c3ncnn3C3CC3)cc2C2(CCC2)CN1C[C@@H](O)[C@@H]1Cc2ccccc2CN1" , and I need its recorded IC50.
RESULT: 127 nM

QUERY: So what's the measured IC50 for this one? CC[C@H]1CN(C[C@@H](O)[C@@H]2Cc3ccccc3CN2)C(=O)c2ccc(C(=O)N3C4CCC3COC4)cc21 (single isomer, unassigned) [Example 16]
RESULT: 8840 nM
